Tested on: CSNK1A1;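 also: KINOMEscan kinase panel screen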
Details: concentration: 1 μM, replicates: in singlicate; n = 1
MEASUREMENT NAME: %Inh (%)
Field: numeric (%). Do not append units.

Guide cases for %Inh, answers given:
CCCC(=O)Nc1n[nH]c2ncc(-c3cccc4ccccc34)cc12 [SB-642057] ... 0
FC(F)(F)c1ccc(-c2ncn(CCCN3CCOCC3)c2-c2ccncc2)cc1 [SB-217780] ... 21
CCCNC(=O)Nc1ccc(Oc2ncnc3ccn(C)c23)cc1 ... 10
COc1cc(OC)cc(-c2cc3cnc(N)nc3nc2NC(=O)NC(C)(C)C)c1 ... 36
COc1cc2ncn(-c3cc(OCc4ccncc4Br)c(C(N)=O)s3)c2cc1OC [GW854278] ... 0
O=C(Nc1n[nH]c2nc(-c3ccccc3)c(Cl)cc12)C1CC1 [SB-734909] ... 0
Cl.NS(=O)(=O)c1cccc(Nc2cc(-c3ccc(F)cc3)n[nH]2)c1 [GW824645] ... 3
CCc1nc(-c2cccc(C)c2)c(-c2ccncc2)s1 ... 58

stdin: Give its %Inh value. Item: `COC(=O)c1c(-c2ccccc2)c2cc(C)ccc2c(=O)n1Cc1ccccc1`
stdout: 0
